Source of measurements: patent US20250388593A1

Kindly state Kd for each of the entries shown.
# ASSAYED_SYSTEM: CRBN truncate (318-426) (Homo sapiens (Human))
# Sequence (Q96SW2 318-426): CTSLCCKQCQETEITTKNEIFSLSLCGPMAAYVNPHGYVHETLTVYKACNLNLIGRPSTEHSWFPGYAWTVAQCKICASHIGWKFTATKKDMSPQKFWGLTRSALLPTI
# PROCEDURE_SUMMARY: Measurement of molecular interactions using surface plasmon resonance (SPR), Biacore T200
# ASSAY_CONDITIONS: 25° C., immobilized CRBN truncate, upper limit of measurement 200 μM

The reported Kd of the molecule O=C1CCCC2(CCN(c3ccc([N+](=O)[O-])cc3)C(=O)C2)C(=O)N1 (centres unmarked) was ≥ 100 µM

Notebook: Cc1sc2c(c1C)C(c1ccc(Cl)cc1)=N[C@@H](CC(=O)NCCCCCCc1cccc3c(C(=O)N4CCC5(CCCC(=O)NC5=O)C4)cccc13)c1nnc(C)n1-2 (some centres unmarked) , Kd read as < 50 µM

Lab note: O=C1CCCC2(CCN(c3ccc([N+](=O)[O-])cn3)C2)C(=O)N1 (centres unmarked) gave Kd of < 50 µM

Notebook: COC(=O)c1cccc(S(=O)(=O)N(C)C2CCCC(=O)NC2=O)c1 (centres unmarked) , Kd read as ≥ 100 µM

Note to self: Kd recorded for O=C1CCCC(NC(=O)c2cccc(-c3ccccc3)c2)C(=O)N1 (centres unmarked) was ≥ 100 µM

# Kd of O=C1CCCC2(CCN(c3ccc(C(F)(F)F)cn3)C2)C(=O)N1 (centres unmarked) = ≥ 100 µM

Please fill in: Kd reported for Cn1ncc2c(N3CCC4(CCCC(=O)NC4=O)C3)ncnc21 (centres unmarked) = ≥ 100 µM

Noted for O=C1CCCC(CNC(=O)c2ccccc2)C(=O)N1 (centres unmarked) : its Kd reads ≥ 100 µM
